# target-desc: hP2X2 (Homo sapiens, UniProt Q9UBL9)
# Sequence (Q9UBL9 1-471): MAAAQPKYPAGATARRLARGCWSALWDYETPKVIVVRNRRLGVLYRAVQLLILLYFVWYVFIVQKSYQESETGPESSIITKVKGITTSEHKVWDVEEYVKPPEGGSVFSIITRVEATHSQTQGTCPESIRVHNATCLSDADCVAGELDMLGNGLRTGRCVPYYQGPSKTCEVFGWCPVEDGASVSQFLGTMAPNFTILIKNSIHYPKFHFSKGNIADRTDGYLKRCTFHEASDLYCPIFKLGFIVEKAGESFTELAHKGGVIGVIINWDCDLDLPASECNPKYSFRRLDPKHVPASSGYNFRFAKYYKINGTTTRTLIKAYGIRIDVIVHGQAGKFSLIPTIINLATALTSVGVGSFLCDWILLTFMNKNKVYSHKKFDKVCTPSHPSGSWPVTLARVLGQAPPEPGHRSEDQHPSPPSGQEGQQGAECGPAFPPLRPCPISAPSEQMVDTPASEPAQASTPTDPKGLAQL
# assay-explanation: hP2X2-NeonGreen-Calflux-nLuc BRET probe in HEK293T cells
# run-parameters: read-out: EC50 of activation of hP2X2 probe
pEC50: −log10 of the molar value.

{"compound": "Nc1ncnc2c1ncn2[C@@H]1O[C@H](COP(=O)(O)OP(=O)(O)OP(=O)(O)O)[C@@H](O)[C@H]1O [ATP]", "pEC50": 5.79}

----------
# target-desc: P2X2 (Rattus norvegicus)
# Sequence (P49653 whole entry): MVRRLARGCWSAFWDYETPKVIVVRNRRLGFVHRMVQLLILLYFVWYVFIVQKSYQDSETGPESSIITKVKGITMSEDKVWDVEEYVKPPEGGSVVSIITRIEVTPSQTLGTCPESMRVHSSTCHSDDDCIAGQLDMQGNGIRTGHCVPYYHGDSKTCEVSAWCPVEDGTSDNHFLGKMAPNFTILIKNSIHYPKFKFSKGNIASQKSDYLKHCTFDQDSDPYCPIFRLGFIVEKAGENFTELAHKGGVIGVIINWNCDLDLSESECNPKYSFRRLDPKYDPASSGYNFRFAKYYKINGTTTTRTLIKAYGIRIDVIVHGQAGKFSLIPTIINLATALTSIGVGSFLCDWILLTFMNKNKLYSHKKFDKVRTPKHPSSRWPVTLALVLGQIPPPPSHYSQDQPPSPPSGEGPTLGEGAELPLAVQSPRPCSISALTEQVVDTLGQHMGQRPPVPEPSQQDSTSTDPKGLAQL
# assay-explanation: rP2X2-nLuc-Calflux-YFP BRET probe in HEK293T cells
# run-parameters: read-out: EC50 of activation of P2X2-NLuc-CalFlux-YFP probe
pEC50: −log10 of the molar value.
test-readout: pEC50

{"compound": "Nc1ncnc2c1ncn2[C@@H]1O[C@H](COP(=O)(O)OP(=O)(O)OP(=O)(O)O)[C@@H](O)[C@H]1O [ATP]", "target-desc": "P2X2 (Rattus norvegicus)", "numeric-result": 6.05}

----------
# target-desc: NR1-nLuc-Calflux-YFP/NR2B ion channels (NMDA receptors) (Homo sapiens, UniProt Q05586+Q13224)
# Sequence (Q13224 27-1484, other chains not shown): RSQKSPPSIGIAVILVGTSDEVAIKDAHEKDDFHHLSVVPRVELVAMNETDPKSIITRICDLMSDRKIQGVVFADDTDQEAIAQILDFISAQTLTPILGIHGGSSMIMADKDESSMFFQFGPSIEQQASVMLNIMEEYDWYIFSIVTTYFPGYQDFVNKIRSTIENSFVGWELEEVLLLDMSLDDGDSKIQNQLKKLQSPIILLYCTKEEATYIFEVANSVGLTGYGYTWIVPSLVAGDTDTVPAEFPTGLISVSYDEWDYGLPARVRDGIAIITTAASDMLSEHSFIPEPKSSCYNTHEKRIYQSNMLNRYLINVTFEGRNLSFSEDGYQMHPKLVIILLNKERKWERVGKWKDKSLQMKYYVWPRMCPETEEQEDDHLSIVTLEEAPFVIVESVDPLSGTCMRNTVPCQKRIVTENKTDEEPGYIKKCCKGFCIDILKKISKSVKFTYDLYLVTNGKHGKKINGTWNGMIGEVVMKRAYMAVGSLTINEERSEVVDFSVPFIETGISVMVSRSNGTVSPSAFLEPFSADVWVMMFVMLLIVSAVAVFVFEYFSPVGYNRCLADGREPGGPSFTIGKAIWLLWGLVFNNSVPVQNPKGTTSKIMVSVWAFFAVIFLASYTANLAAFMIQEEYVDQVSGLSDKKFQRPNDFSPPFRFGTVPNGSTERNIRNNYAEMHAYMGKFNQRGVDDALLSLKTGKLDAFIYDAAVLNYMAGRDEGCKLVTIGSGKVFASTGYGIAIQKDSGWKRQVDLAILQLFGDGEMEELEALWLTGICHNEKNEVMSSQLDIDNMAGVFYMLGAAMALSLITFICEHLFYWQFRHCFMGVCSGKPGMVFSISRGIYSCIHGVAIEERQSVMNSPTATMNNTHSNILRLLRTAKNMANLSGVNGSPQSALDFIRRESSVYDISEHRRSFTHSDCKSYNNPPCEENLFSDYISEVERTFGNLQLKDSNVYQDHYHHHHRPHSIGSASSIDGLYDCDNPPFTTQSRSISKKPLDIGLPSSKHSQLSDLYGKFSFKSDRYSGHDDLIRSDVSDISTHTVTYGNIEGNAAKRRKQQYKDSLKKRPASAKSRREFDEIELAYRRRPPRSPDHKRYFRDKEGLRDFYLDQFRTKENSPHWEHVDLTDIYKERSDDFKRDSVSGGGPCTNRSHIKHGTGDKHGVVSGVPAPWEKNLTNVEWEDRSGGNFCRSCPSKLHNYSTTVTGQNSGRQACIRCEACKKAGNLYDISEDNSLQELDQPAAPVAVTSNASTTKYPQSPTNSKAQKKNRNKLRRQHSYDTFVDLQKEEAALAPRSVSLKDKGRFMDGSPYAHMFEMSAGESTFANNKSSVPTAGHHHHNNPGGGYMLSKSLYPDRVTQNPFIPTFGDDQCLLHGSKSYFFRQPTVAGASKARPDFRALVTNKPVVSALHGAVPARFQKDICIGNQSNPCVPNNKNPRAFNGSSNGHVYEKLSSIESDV
# assay-explanation: NR1-nLuc-Calflux-YFP BRET probe coexpressed with NR2B in HEK293T cells
# run-parameters: read-out: EC50 of activation of NR1-nLuc-Calflux-YFP/NR2B
# From the text: FIG. 7: Dose-response for NMDA as measured in HEK293T cells transiently expressing the NR1-nLuc-Calflux-YFP probe alone (A) or coexpressed with NR2A (B) or NR2B (C) subunits. We have constructed a novel BRET probe allowing to measure the activity of NMDA receptors by coupling the cDNA of the NR1 subunit to the BRET sensor nLuc-Calflux-YFP (FIG. 7). NMDA receptors are heterotetramers comprising 2 NR1 subunits and 2 NR2 or NR3 subunits. […]

{"compound": "CN[C@H](CC(=O)O)C(=O)O [NMDA, N-methyl-D-aspartate]", "EC50 (µM)": 12.3}

----------
# target-desc: hP2X5 (Homo sapiens, UniProt Q93086)
# Sequence (Q93086 whole entry): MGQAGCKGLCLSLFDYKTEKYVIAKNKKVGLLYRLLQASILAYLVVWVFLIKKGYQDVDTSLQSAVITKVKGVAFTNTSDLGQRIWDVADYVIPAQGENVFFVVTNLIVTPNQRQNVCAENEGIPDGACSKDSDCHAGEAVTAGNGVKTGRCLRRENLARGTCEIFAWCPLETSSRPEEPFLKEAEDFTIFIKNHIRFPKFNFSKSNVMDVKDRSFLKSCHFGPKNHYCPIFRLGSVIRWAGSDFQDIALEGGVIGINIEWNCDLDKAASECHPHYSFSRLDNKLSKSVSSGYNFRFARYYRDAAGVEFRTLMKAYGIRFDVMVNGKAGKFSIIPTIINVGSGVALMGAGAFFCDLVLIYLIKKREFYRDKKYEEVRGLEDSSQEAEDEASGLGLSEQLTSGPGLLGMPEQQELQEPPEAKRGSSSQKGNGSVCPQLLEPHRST
# assay-explanation: hP2X5-NeonGreen-Calflux-nLuc BRET probe in HEK293T cells
# run-parameters: read-out: EC50 of activation of hP2X5 probe
# Source text: Values were normalized to the maximal efficacy measured individually for each probe and represent the mean of three independent experiments. We constructed human and murine P2X-NeonGreen-Calflux-nLuc probes wherein the DNA sequence encoding the seven human or mouse P2X subunits are individually fused in C-terminal to the calflux calcium sensor sandwiched in between the nanoluciferase and mNeonGreen (FIG. 11 left panel).
pEC50: −log10 of the molar value.
test-readout: pEC50

{"smiles-input": "Nc1ncnc2c1ncn2[C@@H]1O[C@H](COP(=O)(O)OP(=O)(O)OP(=O)(O)O)[C@@H](O)[C@H]1O", "target-desc": "hP2X5 (Homo sapiens, UniProt Q93086)", "numeric-result": 6.32}
